# METHOD DESCRIPTION: Toxicity test in mouse (LD50, intraperitoneal application)
# ASSAY SETUP: in vivo, ip
Where a name gives a salt, the structure may show the parent alone.
Here the recorded LD50 is given for each entry.

Worked set:
* Cc1[nH]c(=O)n(C)c(=O)c1NC(=O)COc1ccc(Cl)cc1 | > 1700 mg/kg
* CN(C)CCOC(=O)COc1ccc(Cl)cc1 [Meclofenoxate HCl] | 856 mg/kg

**Q:** What does the data say about its LD50? Entry: Cc1c(NC(=O)COc2ccc(Cl)cc2)c(=O)n(C)c(=O)n1C
**A:** > 1700 mg/kg

**Q:** Would you mind doing Cc1[nH]c(=O)[nH]c(=O)c1NC(=O)COc1ccc(Cl)cc1 as well?
**A:** 800 mg/kg

**Q:** Cn1c(N)c(NC(=O)COc2ccc(Cl)cc2)c(=O)n(C)c1=O ?
**A:** > 1700 mg/kg

**Q:** Now this one: NC(=O)CN1CCCC1=O
**A:** > 2000 mg/kg
